Origin of values: the OligoGym collection

- Measured Target: SMAD1
- Applied Conditions: ASO; note: test concentration or dose not given here
These antisense oligonucleotides have a phosphorothioate backbone; sugars and methylation of C are not fully specified.
Metric: remaining target (mRNA or protein) (fraction of control)
Respond numerically, and do not add a unit to the figure.

TGTTTGTGTCCATCGGCT
0.47
TTGGTCACAGAGGTCAAG
0.15
AAATGACATGAGGCAGTC
0.54
CATAAGCAACCGCCTGAA
0.57
TCCTTCTGCTTGGAACCA
0.3
ATGCAAAAGGACAGCAGA
0.57
TGAAACCATCCACCAACA
0.3
TCGCCCTGTTTCCACCCA
0.1

# query: remaining target (mRNA or protein) (fraction of control) of entry AAAGATGAACTCCTTTTC
0.65

Which remaining target (mRNA or protein) (fraction of control) reading was recorded for the sequence TCCATGGTTCACAGACTG ?
0.2

* * *

- Measured Target: E2F1
- Applied Conditions: ASO
These antisense oligonucleotides have a phosphorothioate backbone; sugars and methylation of C are not fully specified.
Metric: remaining target (mRNA or protein) (fraction of control)
Field format: numeric only.

// solved cases for remaining target (mRNA or protein) (fraction of control) follow
ACACACACATGCTCACACAC
0.56
AGGTCTCTGATGCCCTCGCC
0.53
TTGCTGATTCCCCAGGCTCA
0.36
GGCTGCCCATCCGGGACAAC
0.53
AACCTTTAAGACAGAAGTGC
0.74
GGTCCCTCCAAGCCCTGTCA
0.2
GATTCTGGGAGCAGGCACTG
0.79

// next item, remaining target (mRNA or protein) (fraction of control) requested
Data request, read-out remaining target (mRNA or protein) (fraction of control), for GCCAGGCGCTGGCTGTCAGT
0.69

* * *

- Measured Target: FADD
- Applied Conditions: ASO
These antisense oligonucleotides have a phosphorothioate backbone; sugars and methylation of C are not fully specified.
Threshold check on remaining target (mRNA or protein) (fraction of control): strictly below 0.7 is MET; on or above 0.7 is NOT MET.

Input CTTCGCTCCGATTCCTGG ; condition: remaining target (mRNA or protein) (fraction of control) strictly below 0.7. Does it hold?
NOT MET

Identify whether the sequence CCGGTGGCCTCCAAGGAA records remaining target (mRNA or protein) (fraction of control) below 0.7.
NOT MET

Field: below-cutoff. Rule: recorded remaining target (mRNA or protein) (fraction of control) strictly less than 0.7. Subject: AAGATACGAGATCCCGCT
MET

# check: remaining target (mRNA or protein) (fraction of control) < 0.7 for CTCCCGCACACGCTCTGT
NOT MET

Just wondering, is remaining target (mRNA or protein) (fraction of control) of CTCCAGGTCGTTCTGCTC below 0.7?
MET

Determine if CCTGCTGGGTCTTCACAG shows remaining target (mRNA or protein) (fraction of control) strictly lower than 0.7.
NOT MET

Please check: remaining target (mRNA or protein) (fraction of control) for TCATCAGCACCTCACAGA , strictly under 0.7 or not?
NOT MET

Strictly below 0.7: is that where remaining target (mRNA or protein) (fraction of control) of CCATCAGGACGCTTCGGA sits?
NOT MET

API: query returns whether the sequence falls strictly under 0.7 in remaining target (mRNA or protein) (fraction of control). Query: ATGGGCTCTGGTGAAGGA
NOT MET

* * *

- Measured Target: TNFRSF1A
- Applied Conditions: ASO
These antisense oligonucleotides have a phosphorothioate backbone; sugars and methylation of C are not fully specified.
Each item that follows carries a reported remaining target (mRNA or protein) (fraction of control).
Provide a numeric answer; units are not to be included.

Would you kindly share the measured remaining target (mRNA or protein) (fraction of control) for CTTACAGTTACTACAGGA ?
0.79

* * *

- Measured Target: EGR1
- Applied Conditions: ASO
These antisense oligonucleotides have a phosphorothioate backbone; sugars and methylation of C are not fully specified.
// reported remaining target (mRNA or protein) (fraction of control) for each item listed

The examples below pair each entry with its known result.
CATGGCACAGACACTGTA
≥ 1
GGGCGAGTGAGGAAAGGA
0.63
TCTTTCCCCTTTCCCTTT
0.93

Which remaining target (mRNA or protein) (fraction of control) value belongs to TATCCAAAATCCATGCAA ?
≥ 1

// returns reported remaining target (mRNA or protein) (fraction of control) for input GAGAGGAGAAGGAGGTGG
≥ 1

If you can, please state the reported remaining target (mRNA or protein) (fraction of control) value of TGGGTGCAGGCTCCAGGG .
≥ 1

* * *

Measured remaining target (mRNA or protein) (fraction of control) values are reported for all entries that follow.
- Measured Target: ICAM1
- Applied Conditions: ASO
These antisense oligonucleotides have a phosphorothioate backbone; sugars and methylation of C are not fully specified.
Lab note: jot the number down without any unit.

Please review the entries below; each comes with its answer.
TCTGAGTAGCAGAGGAGCTCA
0.3
CATAGCGAGGCTGAGGTTGC
0.39
AGCGAGGCTG
0.97

// lookup remaining target (mRNA or protein) (fraction of control) for GCCCATTGCAGGGCCAGGGC
0

For the sequence shown here, TGGGAGCCATAGCGAG , give the reported remaining target (mRNA or protein) (fraction of control).
0.55

Return reported remaining target (mRNA or protein) (fraction of control); argument: GGAGCCATAGCGAGGC
0.35

* * *

Overview of recorded remaining target (mRNA or protein) (fraction of control) for various sequences
- Measured Target: PCK2
- Applied Conditions: ASO
These antisense oligonucleotides have a phosphorothioate backbone; sugars and methylation of C are not fully specified.
In your answer, state the number alone without any accompanying words.

GCGTTGGGATTGGTGGTGGC
0.82
GGCAGATCCTGGTTGACCTG
0.81

Let's switch to this sequence now.
I'd like to know its remaining target (mRNA or protein) (fraction of control). The sequence in question is TCACGAACCTCCTGTTCCCA
0.6

* * *

Here the recorded remaining target (mRNA or protein) (fraction of control) is given for each entry.
- Measured Target: NCOA2
- Applied Conditions: ASO
These antisense oligonucleotides have a phosphorothioate backbone; sugars and methylation of C are not fully specified.
// response body must contain only the number

// worked examples, remaining target (mRNA or protein) (fraction of control) included
GGACATAGCAAGTCATCT
0.62
AGGGTTGCTCATAGTTGC
0.61
GGATTTCCCTCTGTCTCT
0.32
CTGCGCATGGAACTTCTG
0.45

The record that follows has no remaining target (mRNA or protein) (fraction of control) shown yet.
I have this sequence here, CTGGCTTCAGCAGTGTCA , and I need its recorded remaining target (mRNA or protein) (fraction of control).
0.72

* * *

- Measured Target: GNAS
- Applied Conditions: ASO
These antisense oligonucleotides have a phosphorothioate backbone; sugars and methylation of C are not fully specified.
Each entry below lists one item and its recorded remaining target (mRNA or protein) (fraction of control) value.
Hey, just send me the number, nothing else.

TTGTTTGCTGCTGCTGTTTT
0.45
AGTGAGAGGGAACTTTTGTG
0.41
TTTGTTTCTTTTATTTCATT
0.83

As a next step, examine the sequence that follows.
For TGTTTGCTGCTGCTGTTTTA , what is its reported remaining target (mRNA or protein) (fraction of control)?
0.96

* * *

- Measured Target: AKT2
- Applied Conditions: ASO
These antisense oligonucleotides have a phosphorothioate backbone; sugars and methylation of C are not fully specified.
Please assign a class to every record based on measured remaining target (mRNA or protein) (fraction of control), with ranges range A = under 0.2, range B = from 0.2 up to 0.3, range C = 0.3 and over

// below: answered sequences
ATGACCTCCTTGGCATCG
range A
CAAGGAGTTTGAGATAGT
range C
GTGAGCGACTTCATCCTT
range B
TGGTCACTTTAGCCCGTG
range C
CTTTGATGACAGACACCT
range B
ACCAGGATGACTTTGCCA
range B
CTACGGAGAAGTTGTTTA
range C
GAGGCACCGTGGACAGGG
range C
TGACAGACACCTCATTCA
range A
ATGACAAAGGTGTTGGGT
range B

Which class does CCAATGAAGGAGCCGTCG fall in?
range C

Exam item: assign GTGATGGCAGCGAGCGTG to the correct category.
range C

Band for CTTGAGGCTGTTGGCGAC ?
range A

* * *

- Measured Target: GNAI1
- Applied Conditions: ASO
These antisense oligonucleotides have a phosphorothioate backbone; sugars and methylation of C are not fully specified.
Metric: remaining target (mRNA or protein) (fraction of control)
Reply briefly: the number, and no unit.

Can you share its remaining target (mRNA or protein) (fraction of control)? I mean this sequence: ATAAAGCCTTCTTCAGCA
0.78

So what's the measured remaining target (mRNA or protein) (fraction of control) for this one? CAATTCCTGTAGTTTTCA
0.8

Sample TAATAGTCTGTCATTCAG — what was its remaining target (mRNA or protein) (fraction of control)?
0.95

Name the recorded remaining target (mRNA or protein) (fraction of control) for CCGGGCTGAGTCACCAAA .
0.31

So what's the measured remaining target (mRNA or protein) (fraction of control) for this one? ACTGCTTTGTATTGTTTA
0.94

Any idea what its remaining target (mRNA or protein) (fraction of control) is? The sequence is TAAAAGAGACCACAATCT
0.81

Look up remaining target (mRNA or protein) (fraction of control): TCCCCATAGCCCTAATGA
0.21

Entry TTATGTTATTTCCAAAGC has what remaining target (mRNA or protein) (fraction of control)?
0.87

Recorded remaining target (mRNA or protein) (fraction of control) of TTAAGAACATTTCAATAA , please.
0.99
